tested_target: HiBiT-tagged BCL-xL (Homo sapiens)
Construct: expressed in transfected cells; host or cells: NCI-H1650 (ATCC No. CRL-5883), engineered HiBiT cell line
Sequence (Q07817 whole entry): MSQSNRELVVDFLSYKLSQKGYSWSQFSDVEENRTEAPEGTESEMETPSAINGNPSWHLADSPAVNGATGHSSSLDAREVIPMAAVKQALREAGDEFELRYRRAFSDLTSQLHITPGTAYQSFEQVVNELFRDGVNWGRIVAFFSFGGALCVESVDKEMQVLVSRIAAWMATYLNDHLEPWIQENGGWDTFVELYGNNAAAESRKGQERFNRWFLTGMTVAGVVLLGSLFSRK
protocol_text: NCI-H1650 BCL-xL protein levels, Nano-Glo HiBiT Lytic Detection
Format: cell-based
experimental_setup: NCI-H1650 expressing HiBiT-tagged BCL-xL, overnight incubation, read-out: Bcl-xl HIBIT NCIH1650 DC50
Reported DC50 by item:

Use these answered entries as a reference point.
Cc1ncsc1-c1ccc([C@H](C)NC(=O)[C@@H]2C[C@@H](O)CN2C(=O)[C@@H](NC(=O)CCCCNC(=O)c2nc(N3CCCc4c3nnc(Nc3nc5ccccc5s3)c4C)ccc2-c2cnn(CC34CC5(C)CC(C)(C3)CC(OCCN3CCCC3)(C5)C4)c2C)C(C)(C)C)cc1 ... > 1670 nM
Cc1ncsc1-c1ccc([C@H](C)NC(=O)[C@@H]2C[C@@H](O)CN2C(=O)[C@@H](NC(=O)[C@H]2CCCN(C(=O)c3nc(N4CCCc5c4nnc(Nc4nc6ccccc6s4)c5C)ccc3-c3cnn(CC45CC6(C)CC(C)(C4)CC(OCCN4CCCC4)(C6)C5)c3C)C2)C(C)(C)C)cc1 ... > 1670 nM

Item: Cc1ncsc1-c1ccc([C@H](C)NC(=O)[C@@H]2C[C@@H](O)CN2C(=O)[C@@H](NC(=O)CCOCCOCCNC(=O)c2nc(N3CCCc4c3nnc(Nc3nc5ccccc5s3)c4C)ccc2-c2cnn(CC34CC5(OCCN6CCCC6)C[C@](C)(C3)C[C@](C)(C4)C5)c2C)C(C)(C)C)cc1 | DC50: > 1670 nM
